# TEST_SUMMARY: Oral bioavailability in rat at 20 umol/kg
# Assay type: ADME, organism-based
# CONDITION_DESCRIPTION: in vivo
METRIC_NAME: bioavailability (%)

1 = CCCn1cnc(C[C@H](CCCN)C(=O)O)c1
2 = CCCn1cnc2c1CC[C@@](CCCN)(C(=O)O)C2
Request: // compare: 1 vs 2 , metric bioavailability, want the smaller Refer to your chosen entry by its label in the reply.
Result: 2
(2: 2%, 1: 8%)

---

# ASSAY_SYSTEM: Carboxypeptidase B2 (Homo sapiens, UniProt Q96IY4)
# Sequence (Q96IY4 whole entry): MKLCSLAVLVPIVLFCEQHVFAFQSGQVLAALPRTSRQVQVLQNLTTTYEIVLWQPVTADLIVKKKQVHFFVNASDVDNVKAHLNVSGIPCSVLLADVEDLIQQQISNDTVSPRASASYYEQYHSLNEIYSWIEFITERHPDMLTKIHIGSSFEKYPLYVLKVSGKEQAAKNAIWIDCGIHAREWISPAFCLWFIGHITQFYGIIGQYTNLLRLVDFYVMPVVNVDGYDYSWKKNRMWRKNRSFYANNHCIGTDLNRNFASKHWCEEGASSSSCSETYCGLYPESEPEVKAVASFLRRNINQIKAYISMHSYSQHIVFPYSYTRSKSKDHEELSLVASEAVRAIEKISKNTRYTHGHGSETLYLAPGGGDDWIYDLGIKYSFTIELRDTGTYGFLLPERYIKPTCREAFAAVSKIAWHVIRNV
# TEST_SUMMARY: Inhibition of human […] using hippuryl-L-arginine/hippuryl-L-lysine as substrate by liquid chromatographic analysis
pIC50: −log10 of the molar value.
METRIC_NAME: pIC50

a = CCCn1cnc(C[C@H](CCCN)C(=O)O)c1
b = C[C@@H](S)[C@@H](Cc1ccc(N)nc1)C(=O)O
Request: Which item exceeds the other in pIC50, a or b ? Refer to your chosen entry by its label in the reply.
Result: b

---

# ASSAY_SYSTEM: Carboxypeptidase B2 (Homo sapiens, UniProt Q96IY4)
# TEST_SUMMARY: Inhibition of human TAF1a
pIC50: −log10 of the molar value.
METRIC_NAME: pIC50

Example entries begin here.
NCCC[C@@]1(C(=O)O)CCc2c(ncn2C2CCCCC2)C1 : 6.93
NCCCC1(C(=O)O)CCc2c(ncn2CCC2CCC(C3CCCCC3)CC2)C1 (racemic) : 6.91
NCCC[C@@]1(C(=O)O)CCc2c(ncn2Cc2cccc(-c3ccccc3)c2)C1 : 6.97
NCCC[C@@]1(C(=O)O)CCn2c(-c3ccccc3)cnc2C1 : 7.18

I = NCCCC1(C(=O)O)CCc2c(ncn2-c2ccccc2)C1 (racemic)
II = CCc1cnc2n1CCC(CCCN)(C(=O)O)C2 (racemic)
Request: // compare: I vs II , metric pIC50, want the smaller Refer to your chosen entry by its label in the reply.
Result: II
(II: 5.64, I: 6.23)

---

# TEST_SUMMARY: Oral bioavailability in rat
# Type: ADME, organism-based
# CONDITION_DESCRIPTION: in vivo
METRIC_NAME: bioavailability (%)

1 = CC(C)CCn1cnc2c1CC[C@@](CCCN)(C(=O)O)C2.Cl
2 = C[C@@H](S)[C@@H](Cc1ccc(N)nc1)C(=O)O
Request: Which item exceeds the other in bioavailability, 1 or 2 ? Refer to your chosen entry by its label in the reply.
Result: 2
(2: 75%, 1: 1.4%)

---

# TEST_SUMMARY: Tmax in rat
# Type: ADME, organism-based
# CONDITION_DESCRIPTION: in vivo
METRIC_NAME: Tmax (min)

A = CCCn1cnc(C[C@H](CCCN)C(=O)O)c1
B = C[C@@H](S)[C@@H](Cc1ccc(N)nc1)C(=O)O
C = CCCn1cnc2c1CC[C@@](CCCN)(C(=O)O)C2
Request: sort_by: Tmax; order: ascending; scope: items listed above Answer by listing the labels in the requested order.
Result: C, B, A

---

# ASSAY_SYSTEM: Carboxypeptidase B2 (Homo sapiens, UniProt Q96IY4)
# TEST_SUMMARY: Inhibition of […] in human plasma assessed as clot lysis
METRIC_NAME: IC50 (µM)

Example entries begin here.
NCCC[C@@]1(C(=O)O)CCn2c(-c3ccccc3)cnc2C1 : 1.3
NCCC[C@@]1(C(=O)O)CCc2c(ncn2C2CCCCC2)C1 : 0.08
CC(C)CCn1cnc2c1CC[C@@](CCCN)(C(=O)O)C2.Cl : 0.1
NCCCC1(C(=O)O)CCc2c(ncn2-c2ccccc2)C1 (racemic) : 7.1
Cl.NCCC[C@@]1(C(=O)O)CCn2c(-c3cccc(-c4ccc(Cl)cc4Cl)c3)cnc2C1 : 3.2

A = CCCn1cnc(C[C@H](CCCN)C(=O)O)c1 [UK-396,082]
B = CCCn1cnc(CC(NCCN)C(=O)O)c1 (stereo unspecified)
C = NCCCC1(C(=O)O)CCc2c(ncn2CCC2CCC(C3CCCCC3)CC2)C1 (racemic)
D = C[C@@H](S)[C@@H](Cc1ccc(N)nc1)C(=O)O
Request: Number of compounds to sort: 4. Sort criterion: IC50, ascending. Answer by listing the labels in the requested order.
Result: D, A, B, C
(D: 0.4 µM, A: 5 µM, B: 8 µM, C: 16 µM)

---

# TEST_SUMMARY: Lipophilicity, log D of the compound at pH 7.4
# CONDITION_DESCRIPTION: buffer
METRIC_NAME: logD

Cl.NCCC[C@@]1(C(=O)O)CCn2c(-c3cccc(-c4ccc(Cl)cc4Cl)c3)cnc2C1 : 2.4

P = NCCC[C@@]1(C(=O)O)CCc2c(ncn2Cc2cccc(-c3ccccc3)c2)C1
Q = NCCCC1(C(=O)O)CCc2c(ncn2CCC2CCC(C3CCCCC3)CC2)C1 (racemic)
Request: // compare: P vs Q , metric logD, want the smaller Refer to your chosen entry by its label in the reply.
Result: P
(P: 1, Q: 3.6)

---

# TEST_SUMMARY: Clearance in rat
# Format: ADME, organism-based
# CONDITION_DESCRIPTION: in vivo
METRIC_NAME: clearance (mL/min/kg)

Example entries begin here.
NCCC[C@@]1(C(=O)O)CCc2c(ncn2C2CCCCC2)C1 : 6.2
CCCn1cnc2c1CC[C@@](CCCN)(C(=O)O)C2 : 6

a = C[C@@H](S)[C@@H](Cc1ccc(N)nc1)C(=O)O
b = NCCC[C@@]1(C(=O)O)CCn2c(-c3ccccc3)cnc2C1
c = CCCn1cnc(C[C@H](CCCN)C(=O)O)c1 [UK-396,082]
Request: Kindly order the items shown according to clearance, from the highest value down. Answer by listing the labels in the requested order.
Result: a, b, c
(a: 27 mL/min/kg, b: 12 mL/min/kg, c: 2 mL/min/kg)

---

# TEST_SUMMARY: Oral bioavailability in rat
# Type: ADME, organism-based
# CONDITION_DESCRIPTION: in vivo
METRIC_NAME: bioavailability (%)

Example entries begin here.
NCCC[C@@]1(C(=O)O)CCc2c(ncn2C2CCCCC2)C1 : 1.4
NCCC[C@@]1(C(=O)O)CCc2c(ncn2Cc2cccc(-c3ccccc3)c2)C1 : 1.7

I = NCCC[C@@]1(C(=O)O)CCn2c(-c3ccccc3)cnc2C1
II = Cl.NCCC[C@@]1(C(=O)O)CCn2c(-c3cccc(-c4ccc(Cl)cc4Cl)c3)cnc2C1
Request: Which item exceeds the other in bioavailability, I or II ? Refer to your chosen entry by its label in the reply.
Result: I
(I: 4.9%, II: 0.9%)
